Give cytotoxicity at 10 µM for every item shown.
experiment: Toxicity liver stage against HepG2, at 10uM; type: cell-based; parameters: test concentration 10 uM, cell line HepG2-A16-CD81EGFP; conditions: human, HepG2-A16-CD81EGFP cells; read-out: INHIBITION
Give just the number in %; leave the unit off.

Report cytotoxicity at 10 µM for CN1CCN(c2ncc3c(=O)n(Cc4ccco4)ccc3n2)CC1 please.
-15.1

Try this compound next: COCCn1cc(NC(=O)C(C)CCc2ccccc2F)ccc1=O (centres undefined)
-3.73

Try this compound next: O=C1CC(c2ccccc2)c2snc(C(=O)O)c2N1 (centres undefined)
-5.02

Try this compound next: CN(C)CC(=O)NC1CC(C)(C)Cc2nc(C(C)(C)C)ncc21 (centres undefined)
-13.4

Try this compound next: N#Cc1cccc(C(=O)NS(=O)(=O)c2ccc(C#N)c(Cl)c2)c1
-3.54

Try this compound next: COc1cccc(-n2nnc(C(=O)N3CCN(C(C)=O)CC3)c2C)c1
-13.2

Try this compound next: Cn1cc2ncn(C3CCN(c4ccccc4F)CC3)c(=O)c2n1
4.44

Try this compound next: Cc1cn2c(n1)C(CNCc1cccc3c1OCO3)CCC2 (centres undefined)
-0.372

Try this compound next: CSc1ncc(CN(C)C(C)c2cccnc2)cn1 (centres undefined)
2.1

Try this compound next: Cc1ccc(CN(C)C(=O)NCC(C)(C)CCS(C)(=O)=O)s1
6.24

Try this compound next: Cc1cccc(C2CCCN(C(=O)C3CCN(CC(N)=O)CC3)C2)c1 (centres undefined)
-7.18

Try this compound next: CO[C@H]1CN(Cc2cc(F)ccc2F)CC[C@@]12CCCO2
-8.49

Try this compound next: CCc1noc(CN2CCCN(Cc3cccs3)CC2)n1
2.76

Try this compound next: N#Cc1ccc(CN2CCOCC2)cc1
-9.32

Try this compound next: O=S(=O)(C1CC1)N1CCO[C@H]2[C@@H](Oc3cccnc3)CC[C@@H]21
-5.96

Try this compound next: Cn1cc(N2CC3(COCCN(Cc4ccsc4)C3)OCC2=O)cn1 (centres undefined)
3.55

Try this compound next: CC(Cn1cccn1)NCCS(=O)(=O)c1ccc(Cl)cc1 (centres undefined)
-6.19

Try this compound next: Cc1cccc(Cn2cc(Br)c(NS(C)(=O)=O)n2)c1
-0.08

Try this compound next: Cc1nnc(C(C)NCC2(c3ccc(Cl)cc3)CCOCC2)o1 (centres undefined)
-1.47

Try this compound next: Cc1ncc(CN2CCC(N(C)Cc3noc(C4CC4)n3)C2)s1 (centres undefined)
-3.16

Try this compound next: CC(=O)c1c[nH]c(C(=O)N2CCN(C(C(N)=O)c3ccccc3)CC2)c1 (centres undefined)
8.61

Try this compound next: CS(=O)(=O)NCc1cc(-c2cc(F)cc(F)c2)nc(N2CC[C@H](O)C2)n1
-9.58

Try this compound next: Cc1ccnc(N2CCCC(c3nccn3C(C)C)C2)n1 (centres undefined)
-9.63

Try this compound next: CN(C)[C@H]1CCN(c2ccnc(C(=O)NCc3ccco3)c2)C1
4.12
